Test name: qHTS assay for re-activators of p53 using a Luc reporter: Hit Validation; note: nearly all actives have a fitted effect of over 75% in size
Study conditions: p53-responsive luciferase reporter cells, luminescence, H1299 line expressing heat-sensitive Ala138Val p53; series mostly up to 46.1 µM
Records with an inconclusive call do not appear. The source made the active and inactive calls. Calls come from the whole dose curve; as a rule, active = well fitted activation curve with a large enough effect; inconclusive = small, poorly fitted or top-dose-only effect; inactive = no such curve, though single readings can be large or run the other way.
Entry note: the call must match one of yes (active), no (inactive)

Compound: O=C(Oc1ccc2ccccc2c1Cl)N1CCCCCC1
Qualitative label: yes
--
Compound: CCOc1ccc(-c2nnc(SCC(=O)N3CCNC3=O)o2)cc1
Qualitative label: yes
--
Compound: CCN1C(=S)SC(=O)C1=C1C=C(C)N(CCO)C(C)=C1
Qualitative label: yes
--
Compound: O=C(CCS(=O)(=O)c1ccccc1)Nc1ccc(-c2nc3ccccc3s2)cc1
Qualitative label: yes
--
Compound: COc1ccc(-c2cc3ccc(F)cc3cn2)cc1
Qualitative label: yes
--
Compound: Cc1ccsc1C(=O)Nc1ccc2c(c1)OCCO2
Qualitative label: yes
--
Compound: O=C(NC(=S)NC1CCCCC1)c1ccccc1[N+](=O)[O-]
Qualitative label: no
--
Compound: O=C(NC(=S)Nc1nc2ccccc2s1)c1ccco1
Qualitative label: yes
--
Compound: CC(C)CNC(=S)Nc1ccc(Oc2ccccc2)cc1
Qualitative label: no
--
Compound: NNC(=O)c1cccc(O)c1
Qualitative label: no

Data request: Recorded test call requested for CCCCc1ccc(NC(=S)N2CCCC(CO)C2)cc1 (stereo unspecified)
Data returned: yes

Data request: Recorded test call requested for c1ccc(-c2cn3c(n2)SCC3)cc1
Data returned: yes

Data request: Recorded test call requested for CN1CCN(C2=C(Cl)C(=O)N(Cc3ccccc3)C2=O)CC1
Data returned: no

Data request: Recorded test call requested for COc1cccc(C2(c3cccc(OC)c3)CC2C(=O)Nc2cccc3ccccc23)c1 (stereo unspecified)
Data returned: no

Data request: Recorded test call requested for Cc1cccc(Nc2cc(=O)[nH]c(=O)[nH]2)c1C
Data returned: no
